Biological target: T1, CH2-4 constant domains of human IgE linked to a transmembrane protein, on 293 cells (human, UniProt P01854-1 104-428)
T1 construct: domain: CH2-4 constant domains; also called human IgE-expressing 293 cells
T1 sequence (P01854 other isoform, or with tags, fused parts or gaps): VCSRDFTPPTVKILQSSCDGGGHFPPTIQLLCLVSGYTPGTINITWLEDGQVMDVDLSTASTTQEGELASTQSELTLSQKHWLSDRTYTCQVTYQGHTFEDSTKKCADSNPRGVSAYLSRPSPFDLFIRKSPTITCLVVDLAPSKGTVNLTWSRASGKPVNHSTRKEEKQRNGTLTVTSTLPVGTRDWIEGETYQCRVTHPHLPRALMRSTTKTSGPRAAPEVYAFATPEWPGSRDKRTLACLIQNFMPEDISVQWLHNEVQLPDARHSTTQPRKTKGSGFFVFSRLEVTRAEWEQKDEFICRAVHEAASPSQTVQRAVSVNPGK
Assay: flow cytometry, 293 cells expressing human IgE CH2-4
reported_endpoint: Bmax (MFI)
API: value field is a number in MFI; no unit string.

Ask | Write down Bmax measured for item hzB10v9-NNT (Fc fusion, monomeric) VHH-Fc: EVQLVQSGGELVQAGGSLRLSCVASGLTFSSYNMGWLRQAPGKEREFVGVSGSSSTSTYYADSVKGRFTISRDNSKNTVYLQMNSLKPEDTAVYYCAARRMLSTYWSDRSWDFWGQGTQVTVKPGGPSVFLFPPKPKDTLMISRTPEVTCVVVDVSHEDPEVKFNWYVDGVEVHNAKTKPREEQYNSTYRVVSVLTVLHQDWLNGKEYKCKVSNKALPAPIEKTISKAKGQPREPQVYTLPPSRDELTKNQVNLTCLVKGFYPSDIAVEWESNGQPENNYKTTPPVLDSDGSFFLNSTLTVDKSRWQQGNVFSCSVMHEALHNHYTQKSLSLSPGK
Reply | 2.83e+06
